B1: Caulobacter ParB omega fusion; a variant is named by its letters at X, in order, B8GW30 (parent)
chain: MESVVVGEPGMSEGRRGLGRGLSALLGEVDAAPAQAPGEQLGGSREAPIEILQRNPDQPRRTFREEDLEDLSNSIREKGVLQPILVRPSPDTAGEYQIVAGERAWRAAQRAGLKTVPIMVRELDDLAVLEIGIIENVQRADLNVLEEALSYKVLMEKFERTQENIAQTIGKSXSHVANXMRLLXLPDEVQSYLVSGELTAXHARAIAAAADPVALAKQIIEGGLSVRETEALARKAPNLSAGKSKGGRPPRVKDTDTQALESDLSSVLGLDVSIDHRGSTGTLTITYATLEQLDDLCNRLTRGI

Variants of: B1
Test: one-hybrid fitness for binding NBS DNA (the Noc-binding site; scaled: cognate 1, non-cognate 0); higher = stronger binding
Settings: with NBS DNA site
Whole data set: some 81,000 sequences, median “one-hybrid fitness for binding NBS DNA” near -0.1, cut for the highest 2% near 0.36. The sample holds the highest values, similar sequences and a random draw of the others, so the mix is not that of the screen.
Recorded one-hybrid fitness for binding NBS DNA, one value per entry.

- MUTATION_ANNOTATION: "QQCR"
  one-hybrid fitness for binding NBS DNA: 0.63
- MUTATION_ANNOTATION: "RKYA"
  one-hybrid fitness for binding NBS DNA: 0.344
- MUTATION_ANNOTATION: "PNKV"
  one-hybrid fitness for binding NBS DNA: "≤ 0.2"
- MUTATION_ANNOTATION: "QQCD"
  one-hybrid fitness for binding NBS DNA: "≤ 0.2"
- MUTATION_ANNOTATION: "RKRA"
  one-hybrid fitness for binding NBS DNA: 0.45
- MUTATION_ANNOTATION: "SNPF"
  one-hybrid fitness for binding NBS DNA: "≤ 0.2"
- MUTATION_ANNOTATION: "LHVR"
  one-hybrid fitness for binding NBS DNA: "≤ 0.2"
- MUTATION_ANNOTATION: "RKDA"
  one-hybrid fitness for binding NBS DNA: "≤ 0.2"
- MUTATION_ANNOTATION: "NQFR"
  one-hybrid fitness for binding NBS DNA: "≤ 0.2"
- MUTATION_ANNOTATION: "QQLR"
  one-hybrid fitness for binding NBS DNA: 0.567
- MUTATION_ANNOTATION: "PYNR"
  one-hybrid fitness for binding NBS DNA: "≤ 0.2"
